# TGT: β-Galactosidase Gal42A
# Construct: cytosolic enzyme, purified as formerly reported
# PROTOCOL TEXT: pNPβGal hydrolysis, A400
# Assay type: biochemical, Ruminiclostridium cellulolyticum
# CONDITIONS USED: competitive; substrate p-nitrophenyl-β-D-galactoside, 50 mM phosphate pH 7.0, 37°C; read-out: Mean enzyme concn (mM) ± SD^a / β-Galactosidase Gal42A
EXPERIMENTAL READOUT: Ki (mM)
Numbers only, in mM.

Tell me its Ki given OC[C@H]1OC(O)[C@H](O)[C@@H](O)[C@H]1O (stereo partly shown) as the entry.
2.35

----------
# TGT: α-Xylosidase Xyl31A (Ruminiclostridium cellulolyticum, UniProt B8I9A6)
# Construct: gene Ccel_1004; cytosolic enzyme, purified as formerly reported
# Sequence (B8I9A6 entry or part of it): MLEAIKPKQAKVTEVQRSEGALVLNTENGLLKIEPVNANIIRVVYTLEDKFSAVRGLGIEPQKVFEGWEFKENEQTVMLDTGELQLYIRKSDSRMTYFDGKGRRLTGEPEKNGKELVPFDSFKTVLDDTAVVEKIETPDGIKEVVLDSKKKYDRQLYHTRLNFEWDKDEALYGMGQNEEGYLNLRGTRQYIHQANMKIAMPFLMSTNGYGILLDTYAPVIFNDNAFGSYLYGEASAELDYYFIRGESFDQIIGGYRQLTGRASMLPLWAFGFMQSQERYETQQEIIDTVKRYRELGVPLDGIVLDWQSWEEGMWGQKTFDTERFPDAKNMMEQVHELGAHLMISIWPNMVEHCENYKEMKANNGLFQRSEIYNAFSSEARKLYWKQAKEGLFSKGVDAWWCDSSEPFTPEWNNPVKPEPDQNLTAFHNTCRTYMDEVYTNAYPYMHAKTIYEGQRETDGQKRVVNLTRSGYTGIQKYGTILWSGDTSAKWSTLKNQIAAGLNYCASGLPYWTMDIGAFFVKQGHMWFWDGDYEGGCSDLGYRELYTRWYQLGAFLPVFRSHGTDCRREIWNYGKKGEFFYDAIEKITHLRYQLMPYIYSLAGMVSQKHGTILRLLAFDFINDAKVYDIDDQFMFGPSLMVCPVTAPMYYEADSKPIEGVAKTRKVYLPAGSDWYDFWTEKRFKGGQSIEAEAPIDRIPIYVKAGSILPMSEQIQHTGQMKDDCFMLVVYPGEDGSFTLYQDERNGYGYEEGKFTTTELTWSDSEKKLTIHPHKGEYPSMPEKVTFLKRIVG
# PROTOCOL TEXT: isoprimeverose hydrolysis, HPAEC-PAD
# Type: biochemical
# CONDITIONS USED: competitive; substrate isoprimeverose 0.5 to 8 mM, 50 mM phosphate pH 6.0, 37°C; read-out: Mean enzyme concn (mM) ± SD^a / α-Xylosidase (Xyl31A)
EXPERIMENTAL READOUT: Ki (mM)
Give bare numbers, in mM.

# lookup: α-Xylosidase Xyl31A (Ruminiclostridium cellulolyticum, UniProt B8I9A6) Ki, key = OC[C@H]1OC(O)[C@H](O)[C@@H](O)[C@@H]1O (stereo partly shown) [Glucose]
1.83

----------
# TGT: β-Galactosidase Gal42A
# Construct: cytosolic enzyme, purified as formerly reported
# PROTOCOL TEXT: pNPβGal hydrolysis, A400
# Type: biochemical, Ruminiclostridium cellulolyticum
# CONDITIONS USED: noncompetitive; substrate p-nitrophenyl-β-D-galactoside, 50 mM phosphate pH 7.0, 37°C; read-out: Mean enzyme concn (mM) ± SD^a / β-Galactosidase Gal42A
# Source text: pNPβGal hydrolysis, A400 on β-Galactosidase Gal42A
EXPERIMENTAL READOUT: Ki (mM)
Numbers only, in mM.

Tell me its Ki given OC[C@H]1O[C@@H](O[C@H]2[C@H](O)[C@@H](O)C(O)O[C@@H]2CO)[C@H](O)[C@@H](O)[C@@H]1O (stereo partly shown) [Cellobiose] as the entry.
19.3
